# Tested On: Torsin-1A (Homo sapiens) (UniProt O14656)
# Sequence (O14656 whole entry, looked up): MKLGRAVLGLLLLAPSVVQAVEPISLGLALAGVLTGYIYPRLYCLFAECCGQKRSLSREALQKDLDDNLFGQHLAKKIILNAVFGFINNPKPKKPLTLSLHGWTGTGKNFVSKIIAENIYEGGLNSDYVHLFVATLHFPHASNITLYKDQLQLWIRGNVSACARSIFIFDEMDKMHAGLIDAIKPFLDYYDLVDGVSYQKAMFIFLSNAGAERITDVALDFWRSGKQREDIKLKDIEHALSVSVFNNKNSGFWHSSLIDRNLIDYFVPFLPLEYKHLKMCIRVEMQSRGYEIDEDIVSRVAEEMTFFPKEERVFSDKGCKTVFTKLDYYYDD
# Assay Info: torsin A binders from cell lysate, primary screen, small-molecule microarray, wild-type, 635/667 nm (AID 1149)
# Recorded Conditions: COS7 hTOR1A-WT lysate, 635 nm fluorescence, higher = more signal
Assay Readout: composite z-score

Molecule: CC(=O)NCCCC[C@@H]1NC(=O)[C@@H]2C[C@H](C(=O)NCCCCCC[N+](C)(C)C)[C@H](c3ccc(O)cc3)N2C1=O
Readout Value: 0.0055
--
Molecule: COCCOC(=O)N1C(=O)[C@@]2(c3cc(C#CC4=CCCCC4)ccc31)[C@H](c1ccc(OCCO)cc1)N1[C@H](c3ccccc3)[C@H](c3ccccc3)OC(=O)[C@H]1[C@@H]2C(=O)N1CCCCCCC1
Readout Value: 0.984
--
Molecule: COc1ccc(CCNC(=O)[C@@]2(Sc3ccc(C)cc3)CC(=O)N(C(C)C)[C@@H]2c2ccc(CO)cc2)cc1
Readout Value: 0.939
--
Molecule: COC(=O)C1(CC(C)C)C=C2C(=C(C(C)C)C(=O)C2C)CN1 (centres undefined)
Readout Value: -0.742
--
Molecule: COc1ccc(CCNC(=O)[C@@H]2c3ccccc3C(=O)N(CC34CC5CC(CC(C5)C3)C4)[C@H]2c2ccc(CO)cc2)cc1
Readout Value: 0.713
--
Molecule: CC(c1ccccc1)C(O)C1C=CC2C(=O)N(c3ccccc3)C(=O)C2N1Nc1ccc(C#N)cc1 (centres undefined)
Readout Value: 0.618
--
Molecule: [N-]=[N+]=NCc1ccccc1C[C@]1(C(=O)N2CCOCC2)N=C(c2ccc(OCCCO)cc2)O[C@H]1c1ccccc1CN=[N+]=[N-]
Readout Value: 0.3
--
Molecule: O=C1O[C@H](c2ccccc2)[C@H](c2ccccc2)N2[C@H]1[C@@H](C(=O)NC[C@H](O)c1ccccc1)[C@]1(C(=O)Nc3ccc(C#CCCO)cc31)[C@H]2c1ccccc1OCCO
Readout Value: 0.898
--
Molecule: C#CCN([C@H](/C=C/C1CC1)[C@@H](O)Cc1ccccc1)[C@@H](Cc1ccccc1)C(=O)OC
Readout Value: 0.0515
--
Molecule: COc1ccc([Si](C)(C)[C@H]2[C@H](CCn3cc([C@H](O)c4ccccc4)nn3)O[C@@]3(C(=O)N(C)c4c(Br)cc(C)cc43)[C@@H]2C)cc1
Readout Value: 0.877
--
Molecule: CN(C)CCCC[C@@H]1NC(=O)[C@H]2C[C@@H](C(=O)O)[C@@H](c3cccc(OCCO)c3)N2C1=O
Readout Value: 0.717
--
Molecule: COCCOC(=O)N1C(=O)[C@@]2(c3cc(C#Cc4ccc(OC)cc4)ccc31)[C@H](C(=O)Nc1nc3ccccc3s1)[C@H]1C(=O)O[C@H](c3ccccc3)[C@H](c3ccccc3)N1[C@@H]2c1ccccc1OCCO
Readout Value: 0.245
--
Molecule: COC(=O)[C@H](Cc1ccc(O)cc1)N1CC2=CCCC=C[C@@H]2[C@H]1[C@H](O)Cc1ccccc1
Readout Value: -0.246
--
Molecule: COc1ccc(C#Cc2ccc3c(c2)[C@]2(C(=O)N3)[C@H](C(=O)Nc3nc4ccccc4s3)[C@H]3C(=O)O[C@H](c4ccccc4)[C@H](c4ccccc4)N3[C@@H]2c2ccc(OCCO)cc2)cc1
Readout Value: 0.504
--
Molecule: CCCCNC(=O)c1ccc(C#C[Si](C)(C)C)c(OC(C)=O)c1
Readout Value: 0.18
--
Molecule: N[C@@H](Cc1ccccc1)Cn1cc(C2(O)CCCCC2)nn1
Readout Value: 0.0636
--
Molecule: CCCCC(=C=CC[C@H](O)c1ccc(OCCO)cc1)C[C@H](O)c1ccccn1
Readout Value: 0.215
--
Molecule: COCC(=C=CC[C@@H](O)c1cccc(OCCO)c1)C[C@@H](O)COCc1ccccc1
Readout Value: 1.58
--
Molecule: N#Cc1ccc(C(O)C2C=CC3C(=O)N(c4ccccc4)C(=O)C3N2Nc2ccc([N+](=O)[O-])cc2)cc1 (centres undefined)
Readout Value: 0.0605
--
Molecule: CCCC=C(CCC)[C@@H](NC(=O)c1ccco1)c1ccc(C(=O)OC)cc1
Readout Value: 0.0918
--
Molecule: C=CCN1C(=O)[C@]2(O[C@H](CCn3cc([C@H](O)c4ccccc4)nn3)[C@@H]([Si](C)(C)c3ccc(OC)cc3)[C@@H]2C)c2cc(N3C(=O)c4cccc5cccc3c45)ccc21
Readout Value: -0.439
--
Molecule: CCCCCCCCCCC(O)C1C=CC2C(=O)N(C)C(=O)C2N1N1CCCCC1 (centres undefined)
Readout Value: -0.0728
--
Molecule: CCCCC(O)C1C=CC2C(=O)NC(=O)C2N1Nc1ccccn1 (centres undefined)
Readout Value: 0.477
--
Molecule: CCCCCN1CC=CC23O[C@@H]4C=CCOC(=O)[C@@H]4[C@H]2C(=O)N(CCCCCO)[C@@H]3C1=O (some centres undefined)
Readout Value: 0.459
--
Molecule: CC(C)C[C@@H]1NC(=O)C([C@@H](C)OCc2ccccc2)NC(=O)[C@@]23C(=O)N[C@@H](Cc4ccccc4)C2[C@H](C)[C@@]2(C)O[C@H]2C3/C=C/CC/C=C/CNC1=O (some centres undefined)
Readout Value: -0.608
--
Molecule: C=CCC(OC(C)=O)[C@@H]1[C@@H](N(Cc2ccc(-c3ccccc3)cc2)C(=O)c2cccc3ccccc23)c2cc(OCCCO)ccc2N1C(=O)c1ccc2ccccc2c1 (some centres undefined)
Readout Value: -0.0928
--
Molecule: COc1cc2c(cc1O)C(C1CC1)N(Cc1ccc([N+](=O)[O-])o1)CC2 (centres undefined)
Readout Value: 0.322
--
Molecule: COC(=O)[C@@]1(Cc2ccc(OC)cc2)[C@H]2c3cc(C(=O)N(C)C)n(Cc4ccsc4Br)c3C[C@H]2CN1C(=O)c1ccccc1
Readout Value: -0.0008
--
Molecule: O=C1OCCC=C[C@H]2OC34C=CCN(c5ccc(Cl)cc5)C(=O)[C@H]3N(CCO)C(=O)[C@@H]4C12 (some centres undefined)
Readout Value: -1.97

----------
# Tested On: Dihydroorotate dehydrogenase (quinone), mitochondrial (Plasmodium falciparum (isolate 3D7)) (UniProt Q08210)
# Sequence (Q08210 whole entry, looked up): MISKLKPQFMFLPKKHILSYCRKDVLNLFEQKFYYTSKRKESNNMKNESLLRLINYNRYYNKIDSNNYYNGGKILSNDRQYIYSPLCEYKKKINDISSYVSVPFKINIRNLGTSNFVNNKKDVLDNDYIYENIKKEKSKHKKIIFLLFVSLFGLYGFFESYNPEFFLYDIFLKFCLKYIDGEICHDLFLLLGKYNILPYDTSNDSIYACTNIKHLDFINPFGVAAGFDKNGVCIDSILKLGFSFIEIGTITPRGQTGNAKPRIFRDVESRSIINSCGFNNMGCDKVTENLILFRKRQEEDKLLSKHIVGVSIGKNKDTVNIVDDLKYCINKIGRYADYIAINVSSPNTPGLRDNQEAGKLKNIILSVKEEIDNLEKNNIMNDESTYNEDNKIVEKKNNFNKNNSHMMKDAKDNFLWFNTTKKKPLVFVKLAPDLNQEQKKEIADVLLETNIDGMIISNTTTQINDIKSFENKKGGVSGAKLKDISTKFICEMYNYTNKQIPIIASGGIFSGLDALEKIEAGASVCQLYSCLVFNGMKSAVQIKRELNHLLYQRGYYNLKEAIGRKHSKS
# Assay Info: PfDHODH enzyme inhibitors, primary screen, biochemical, C-terminal His tag, absorbance 600 nm (AID 1175);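 note: recombinant parasite enzyme with a five histidine tag at its C terminus; test concentration not given here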
# Recorded Conditions: DCIP absorbance 600 nm, higher = more signal, called active from +8 up or from −8 down
Listed below: composite z-score values for each entry.

Molecule: CO[C@H]1O[C@H](CO)[C@@H](OC(=O)Nc2ccc(C(F)(F)F)cc2)[C@H](OC(=O)Nc2ccccc2-c2ccccc2)[C@@H]1OC(=O)Nc1ccccc1-c1ccccc1
composite z-score: 0.0823
--
Molecule: COc1cccc(OC)c1C(=O)O[C@H]1[C@@H]2OC(=O)[C@H](Cc3cccc(Br)c3)C/C=C/C[C@@H](Cc3cccc(Br)c3)C(=O)O[C@H]2[C@@H](OC)O[C@@H]1CO
composite z-score: -0.491
--
Molecule: CC[C@H](C)C(=O)O[C@H]1CC[C@]2(C)C3=C(CCC2C1(C)C)[C@]1(C)CC[C@H]([C@H](C)CCCC(C)C)[C@@]1(C)CC3 (stereo partly drawn)
composite z-score: 0.454

----------
# Tested on: Neuregulin-1 EGF-like domain
# Assay Info: binders of neuregulin-1 EGF-like domain, primary screen, biochemical, small-molecule microarray, 635 nm fluorescence (AID 1081);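 note: binding of the protein to compounds printed on small-molecule microarray slides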
# Recorded Conditions: small-molecule microarray binding, higher = more signal
Listed below: composite z-score values for each entry.

Molecule: COCCOC(=O)N1C(=O)[C@@]2(c3cc(C#CC4(O)CCCCCC4)ccc31)[C@H](c1ccccc1OCCO)N1[C@H](c3ccccc3)[C@H](c3ccccc3)OC(=O)[C@H]1[C@@H]2C(=O)N1CCCCCCC1
composite z-score: 1.29

Molecule: COCCn1c(C(=O)N2CCCC2)cc2c1C[C@H]1CN(C(=O)c3ccccc3)[C@@](Cc3ccccc3)(C(=O)OC)[C@@H]21
composite z-score: 1.42

Molecule: CCCCC(=C=CC[C@@H](O)c1cccc(OCCO)c1)C[C@@H](O)COCc1ccccc1
composite z-score: -0.0821

Molecule: C#CCN=C(N)N
composite z-score: 1.01

Molecule: COC(=O)[C@@]1(Cc2ccc(F)cc2)[C@H]2c3cc(C(=O)N(C)C)n(CCn4cc([N+](=O)[O-])nc4C)c3C[C@H]2CN1C(=O)c1ccccc1
composite z-score: 1.19

Molecule: CC1CC/C=C\[C@H]2OC34C=CCN(CCN5CCOCC5)C(=O)[C@H]3N(CCCCCCO)C(=O)[C@@H]4C2C(=O)O1 (stereo partly specified)
composite z-score: 1.44

Molecule: CC(C)C(=C=CC[C@@H](O)c1ccccc1OCCO)C[C@@H](O)c1cc(Cl)cc(Cl)c1O
composite z-score: 1.19

Molecule: COCCOC(=O)N1C(=O)[C@@]2(c3cc(C#CCC(C(=O)OC)C(=O)OC)ccc31)[C@H](C(N)=O)[C@H]1C(=O)O[C@H](c3ccccc3)[C@H](c3ccccc3)N1[C@@H]2c1ccc(OCCO)cc1
composite z-score: 1.23

Molecule: CC(C)C(=C=CC[C@@H](O)c1ccc(OCCO)cc1)CCO
composite z-score: 0.402

Molecule: COc1ccc(C(O)C2C=CC3C(=O)N(C)C(=O)C3N2Nc2ccc([N+](=O)[O-])cc2[N+](=O)[O-])cc1OCc1ccccc1 (stereo unspecified)
composite z-score: 1.27

Molecule: C=CCNC(=O)[C@@H]1[C@H]2C(=O)O[C@H](c3ccccc3)[C@H](c3ccccc3)N2[C@H](c2ccccc2OCCO)[C@@]12C(=O)N(C(=O)OCCOC)c1ccc(C#CCCO)cc12
composite z-score: 1.21

Molecule: NC(=O)[C@@]1(CCS(=O)(=O)c2ccccc2)COC(c2ccc(OCCCO)cc2)=N1
composite z-score: 0.832

Molecule: C[C@H]1NC(=O)C([C@@H](C)OCc2ccccc2)NC(=O)[C@@]23C(=O)N[C@@H](Cc4ccccc4)C2[C@H](C)[C@@]2(C)O[C@H]2C3/C=C/C/C=C\CNC1=O (stereo partly specified)
composite z-score: 0.989

Molecule: CCC(CC)C(O)C1C=CC2C(=O)N(C)C(=O)C2N1N1CCCCC1 (stereo unspecified)
composite z-score: 1.23

Molecule: CN(C)CCCCNC(=O)[C@H]1C[C@H]2C(=O)NCC(=O)N2[C@H]1c1cccc(OCCO)c1
composite z-score: 1.19

Molecule: Cc1ccc(F)cc1S(=O)(=O)N[C@@H]1CCN(Cc2ccc3c(c2)OCO3)C1
composite z-score: -0.276
